The measurements presented in this section are drawn from paper PMC3281842.

Biological target: T1, SPF30 (aa 65–150) (human, UniProt O75940 65-150)
T1 construct: Splicing factor 30 kDa (SPF30, SMNDC1), human, residues 65-150, covers the Tudor domain; cloned into the pET28-MHL vector; also called Splicing factor 30 kDa; SMNDC1; source: E. coli BL21 (DE3), purified (Ni-NTA, size exclusion chromatography)
T1 sequence (looked up): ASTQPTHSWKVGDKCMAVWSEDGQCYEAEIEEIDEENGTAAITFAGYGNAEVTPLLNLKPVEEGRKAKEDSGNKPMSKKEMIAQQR
Experiment: fluorescence polarisation; fluorescein-labeled peptides; 20 mM Tris pH 7.5, 50 mM NaCl, 1 mM DTT, 0.01% Triton X-100; 25°C; one-site binding model; Kd the average of three independent measurements
Conditions: both partners purified
Square brackets hold non-standard residues; d marks the D form. Ends that are not written are not given here. Arg(Me2a) = CN(C)C(=N)NCCC[C@H](N)C(=O)O; Arg(Me2s) = CN=C(NC)NCCC[C@H](N)C(=O)O; Arg(Me) = CNC(=N)NCCC[C@H](N)C(=O)O
recorded_endpoint: Kd

{"columns": ["binder", "reported_result"],
 "data": [
  ["TG[Arg(Me2a)]ARARARGRARGQE (also: fluorescein label, position not given here, N-terminal GAR motif stretch of PIWIL1, R4 asymmetrically dimethylated; also called asymmetrical dimethylated PIWIL1 peptide; source: synthetic peptide (Tufts University Core Services)) [PIWIL1-R4me2a]", "> 400 µM"],
  ["TG[Arg(Me)]ARARARGRARGQE (also: fluorescein label, position not given here, N-terminal GAR motif stretch of PIWIL1, R4 monomethylated; also called monomethylated PIWIL1 peptide; source: synthetic peptide (Tufts University Core Services)) [PIWIL1-R4me1]", "> 500 µM"],
  ["TGRARARARGRARGQE (also: fluorescein label, position not given here, N-terminal GAR motif stretch of PIWIL1, unmethylated; also called unmethylated PIWIL1 peptide; source: synthetic peptide (Tufts University Core Services)) [PIWIL1-R4un]", "> 500 µM"],
  ["TG[Arg(Me2s)]ARARARGRARGQE (also: fluorescein label, position not given here, N-terminal GAR motif stretch of PIWIL1, R4 symmetrically dimethylated; also called symmetrical dimethylated peptide of the PIWIL1 protein; source: synthetic peptide (Tufts University Core Services)) [PIWIL1-R4me2s]", "> 200 µM"]
]}
